# ASSAYED_TARGET: human Kir2.1 (Homo sapiens)
# Construct: expressed in transfected cells
# ASSAY: Kir2.1 manual patch clamp (MPC) assay
# Type: cell-based
# MEASUREMENT_PARAMETERS: % inhibition of Ba2+-sensitive current at highest tested concentration (3–30 μM), pH 7.4
ATTRIBUTE_MEASURED: Emax (%)

| GIVEN_SMILES | ATTRIBUTE_MEASURED | NUMERIC_VALUE |
| --- | --- | --- |
| COc1ccc(CNCc2ccc(-c3ccccc3)cc2)cc1 | Emax | 99 |
| COc1ccc(CNCc2ccc(-c3cccc(F)c3)cc2)cc1 | Emax | 98 |
| COc1ccc(CNCc2ccc(-c3cccc(C#N)c3)cc2)cc1 | Emax | 98 |

====

# ASSAY: Rat PK PBL cassette (i.v.)
# Format: in vivo, Sprague-Dawley rat
# MEASUREMENT_PARAMETERS: Sprague-Dawley, plasma, iv; male SD rat, 0.2 mg/kg i.v. cassette, n = 1; read-out: MRT
Mark True for reported MRT of 50 min or greater; mark False for anything smaller.

| COMPOUND | CAT |
| --- | --- |
| COc1ccc(CNCc2ccc(-c3cccc(C#N)c3)cc2)cc1 [Compound 5t] | True |
| COc1ccc(CNCc2cncc3ccccc23)cc1 [Compound 5b] | False |
| COc1ccc(CNCc2ccc3c(c2)OC(F)(F)O3)cc1 [Compound 5h] | True |
| COc1ccc(CNCc2cccc3ccccc23)cc1 [ML133, reference compound] | False |
| COc1ccc(CNCc2ccc(-c3cccc(F)c3)cc2)cc1 [Compound 5p] | False |

====

# ASSAYED_TARGET: human Kir2.1 (Homo sapiens, UniProt P63252)
# Construct: expressed in transfected cells
# Sequence (P63252 whole entry): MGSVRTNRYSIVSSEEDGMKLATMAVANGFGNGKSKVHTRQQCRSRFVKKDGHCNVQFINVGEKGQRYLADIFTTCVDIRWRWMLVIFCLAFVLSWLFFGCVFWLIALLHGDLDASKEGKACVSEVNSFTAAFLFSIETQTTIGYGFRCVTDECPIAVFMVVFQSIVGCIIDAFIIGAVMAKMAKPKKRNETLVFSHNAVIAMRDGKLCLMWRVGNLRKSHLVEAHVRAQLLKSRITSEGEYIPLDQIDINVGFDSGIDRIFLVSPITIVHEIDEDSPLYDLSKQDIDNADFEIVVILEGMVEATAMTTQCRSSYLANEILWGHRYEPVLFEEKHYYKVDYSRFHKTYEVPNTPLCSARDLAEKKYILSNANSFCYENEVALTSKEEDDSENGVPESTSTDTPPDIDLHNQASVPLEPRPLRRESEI
# ASSAY: Kir2.1 thallium flux assay
# Format: cell-based
# MEASUREMENT_PARAMETERS: T-REx-HEK-293 cells expressing human Kir2.1; 4PL fit; top concentration 30 μM
# Procedure: Thallium Flux Assay Experimental Conditions The Tl+ flux assays were conducted as previously described with modifications optimized for Kir2.1 cell line as described below.1 […] The initial slopes of the Tl+-induced fluorescence changes were fit to a four-parameter logistic equation using our in-house software Waveguide to determine potency and efficacy values. […]
ATTRIBUTE_MEASURED: Thallium Flux Potency IC50

| GIVEN_SMILES | ATTRIBUTE_MEASURED | RESULT |
| --- | --- | --- |
| COc1ccc(CNCc2ccc(-c3cnn(C)c3)cc2)cc1 | Thallium Flux Potency IC50 | inactive |
| COc1ccc(CNCc2cccc3c2OC(F)(F)O3)cc1 | Thallium Flux Potency IC50 | inactive |
| O=S1(=O)CCCN1c1ccc(CNCc2cccc3ccccc23)cc1 | Thallium Flux Potency IC50 | inactive |
